- tested-on: Prothrombin (Homo sapiens, UniProt P00734)
- test-description: Inhibition of recombinant thrombin in human plasma using […] as substrate preincubated for 3 mins followed by substrate addition and measured for 30 mins by microplate reader analysis
pIC50: −log10 of the molar value.
measurement-label: pIC50

Bench note: what pIC50 did COc1cc(O)c(Cl)cc1/C=C/C(=O)c1ccc(O)c([N+](=O)[O-])c1 show?
< 4.00

----------
- tested-on: Prolyl endopeptidase FAP (Homo sapiens)
- Sequence (Q12884 whole entry): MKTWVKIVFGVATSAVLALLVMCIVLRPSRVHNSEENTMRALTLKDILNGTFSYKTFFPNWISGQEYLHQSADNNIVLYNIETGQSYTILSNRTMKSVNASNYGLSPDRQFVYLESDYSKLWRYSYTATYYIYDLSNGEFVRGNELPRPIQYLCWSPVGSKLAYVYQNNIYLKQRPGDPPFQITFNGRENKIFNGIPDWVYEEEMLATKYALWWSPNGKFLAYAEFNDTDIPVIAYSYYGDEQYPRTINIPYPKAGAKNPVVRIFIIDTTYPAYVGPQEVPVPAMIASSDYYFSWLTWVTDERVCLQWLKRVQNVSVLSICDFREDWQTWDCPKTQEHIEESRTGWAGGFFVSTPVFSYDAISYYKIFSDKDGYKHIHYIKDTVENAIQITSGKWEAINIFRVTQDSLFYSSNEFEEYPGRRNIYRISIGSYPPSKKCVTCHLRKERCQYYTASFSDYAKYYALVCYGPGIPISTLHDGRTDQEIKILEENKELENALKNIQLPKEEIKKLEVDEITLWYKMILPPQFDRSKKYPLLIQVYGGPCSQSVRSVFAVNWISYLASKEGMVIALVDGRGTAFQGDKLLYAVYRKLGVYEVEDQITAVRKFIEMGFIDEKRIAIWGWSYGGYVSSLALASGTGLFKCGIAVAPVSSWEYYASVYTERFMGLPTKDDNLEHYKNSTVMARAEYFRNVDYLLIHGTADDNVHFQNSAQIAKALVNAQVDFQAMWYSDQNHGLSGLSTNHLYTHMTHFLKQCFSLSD
- test-description: Inhibition of recombinant human FAP using Z-GP-AMC as substrate preincubated for 5 mins followed by substrate addition and measured after 20 mins by microplate reader analysis
pIC50: −log10 of the molar value.
measurement-label: pIC50

pIC50 lookup needed for COc1cc(O)c(Cl)cc1/C=C/C(=O)c1ccc(O)c([N+](=O)[O-])c1 , thanks.
< 4.00

----------
- test-description: Metabolic stability in human liver microsomes assessed as UDPGA-dependent drug metabolism by measuring half life at 10 uM preincubated for 3 mins followed by UDPGA addition measured for 90 mins by LC-UV analysis
- Type: ADME, Microsome
- test-settings: time 93 min
What half-life at 10 µM was measured for each of the following?
Numbers only, in min.

The examples below pair each entry with its known result.
[
  {
    "molecule": "COc1cc(O)c(Cl)cc1/C=C/C(=O)c1ccc(O)c([N+](=O)[O-])c1",
    "half-life at 10 µM, min": 25.4
  },
  {
    "molecule": "O=c1ccc2ccc(O)cc2o1 [UMBELLIFERONE]",
    "half-life at 10 µM, min": 17.1
  }
]

Turning to the following molecule.
Find the recorded half-life at 10 µM belonging to COc1cc(O)c(Cl)cc1/C=C/C(=O)c1ccc(O)cc1 and report it.
7.1

----------
- tested-on: Dipeptidyl peptidase 4 (Homo sapiens)
- test-description: Inhibition of DPP4 in human plasma using GP-BAN as fluorescent substrate preincubated for 5 mins followed by substrate addition and measured for 20 mins by microplate reader analysis
- Assay type: cell-free
One threshold, 30 µM, splits the recorded IC50 values: lower ones are Met, equal or higher ones are Not met.

Recorded results for 3 compounds are shown here.
[
  {
    "line-notation": "O=c1c(O)c(-c2ccc(O)cc2)oc2cc(O)cc(O)c12",
    "category": "Met"
  },
  {
    "line-notation": "CCCOc1ccc(C(=O)/C=C/c2cc(Cl)c(OC)cc2OC)cc1",
    "category": "Not met"
  },
  {
    "line-notation": "CCCCOc1ccc(C(=O)/C=C/c2cc(Br)c(O)cc2OC)cc1",
    "category": "Not met"
  }
]

IC50 under 30 µM? Item: COc1cc(O)c(Cl)cc1/C=C/C(=O)c1ccc(O)c(O)c1
Met

Please check: IC50 for CCOc1ccc(C(=O)/C=C/c2cc(Cl)c(O)cc2OC)cc1 , strictly under 30 µM or not?
Met

Threshold test, IC50 < 30 µM: CCCCOc1ccc(C(=O)/C=C/c2cc(Cl)c(O)cc2OC)cc1
Not met

Just wondering, is IC50 of COc1ccc(C(=O)/C=C/c2cc(Cl)c(O)cc2OC)cc1 below 30 µM?
Met

Lab note: IC50 threshold 30 µM. Does this compound come in strictly under it? COc1cc(O)c(Cl)cc1/C=C/C(=O)c1ccc(C(F)(F)F)cc1
Met

Item COc1cc(O)c(Cl)cc1/C=C/C(=O)c1ccc(Br)cc1 : IC50 beneath 30 µM, strictly?
Met

----------
- tested-on: UniProt:P27487
- test-description: Inhibition of recombinant human DPP4 using GP-BAN as substrate preincubated for 5 mins followed by substrate addition and measured after 20 mins by microplate reader analysis
measurement-label: IC50 (µM)
One number for each entry, in µM.

// IC50 lookup, key: COc1cc(O)c(Cl)cc1/C=C/C(=O)c1ccc(O)c([N+](=O)[O-])c1
4.87

----------
- tested-on: Prolyl endopeptidase (Homo sapiens, UniProt P48147)
- Sequence (P48147 whole entry): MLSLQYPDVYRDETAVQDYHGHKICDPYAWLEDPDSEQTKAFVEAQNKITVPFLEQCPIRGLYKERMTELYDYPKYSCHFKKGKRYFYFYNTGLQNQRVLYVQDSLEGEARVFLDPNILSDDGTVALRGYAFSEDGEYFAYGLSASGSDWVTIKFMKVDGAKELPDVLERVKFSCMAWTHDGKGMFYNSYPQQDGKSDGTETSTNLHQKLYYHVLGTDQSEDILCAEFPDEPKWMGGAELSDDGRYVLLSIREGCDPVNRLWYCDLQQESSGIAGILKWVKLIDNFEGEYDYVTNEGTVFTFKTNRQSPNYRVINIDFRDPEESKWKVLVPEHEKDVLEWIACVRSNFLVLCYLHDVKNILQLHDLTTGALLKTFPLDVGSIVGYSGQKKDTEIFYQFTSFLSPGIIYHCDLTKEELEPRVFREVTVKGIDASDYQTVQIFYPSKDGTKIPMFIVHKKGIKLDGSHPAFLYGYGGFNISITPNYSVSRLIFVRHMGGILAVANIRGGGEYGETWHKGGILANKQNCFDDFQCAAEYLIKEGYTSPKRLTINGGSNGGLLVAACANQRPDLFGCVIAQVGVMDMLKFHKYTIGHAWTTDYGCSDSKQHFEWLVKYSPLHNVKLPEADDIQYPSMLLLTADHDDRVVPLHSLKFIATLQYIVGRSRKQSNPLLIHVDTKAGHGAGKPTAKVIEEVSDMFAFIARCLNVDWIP
- test-description: Inhibition of recombinant human PREP using Z-GP-AMC as substrate preincubated for 5 mins followed by substrate addition and measured after 20 mins by microplate reader analysis
measurement-label: pIC50
Answers are plain numbers, as −log10 of the molar value.

Please look up its pIC50: COc1cc(O)c(Cl)cc1/C=C/C(=O)c1ccc(O)c([N+](=O)[O-])c1
4.21

----------
- tested-on: Dipeptidyl peptidase 4 (Homo sapiens, UniProt P27487)
- Sequence (P27487 whole entry): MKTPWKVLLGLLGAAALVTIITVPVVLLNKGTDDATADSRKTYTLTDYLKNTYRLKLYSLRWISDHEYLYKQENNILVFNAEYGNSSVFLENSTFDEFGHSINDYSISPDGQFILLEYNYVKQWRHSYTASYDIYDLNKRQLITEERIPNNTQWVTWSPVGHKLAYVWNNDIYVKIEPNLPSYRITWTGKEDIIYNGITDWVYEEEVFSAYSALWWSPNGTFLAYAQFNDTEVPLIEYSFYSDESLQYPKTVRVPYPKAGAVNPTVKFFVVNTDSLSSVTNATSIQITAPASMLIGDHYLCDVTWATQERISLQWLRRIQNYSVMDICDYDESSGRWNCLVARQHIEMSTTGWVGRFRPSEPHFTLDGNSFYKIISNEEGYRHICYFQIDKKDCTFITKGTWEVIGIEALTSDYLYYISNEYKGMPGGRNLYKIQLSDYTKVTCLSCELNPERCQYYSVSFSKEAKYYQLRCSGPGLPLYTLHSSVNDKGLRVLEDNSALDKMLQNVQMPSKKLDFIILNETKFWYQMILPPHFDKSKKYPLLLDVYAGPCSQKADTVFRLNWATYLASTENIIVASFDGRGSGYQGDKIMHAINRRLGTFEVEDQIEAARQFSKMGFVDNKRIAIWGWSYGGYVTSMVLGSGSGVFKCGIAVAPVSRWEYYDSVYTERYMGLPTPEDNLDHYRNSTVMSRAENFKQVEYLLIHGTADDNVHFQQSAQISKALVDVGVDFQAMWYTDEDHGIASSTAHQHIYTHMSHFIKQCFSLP
measurement-label: pKi
Numbers only, as −log10 of the molar value.

Lab note: need pKi for COc1cc(O)c(Cl)cc1/C=C/C(=O)c1ccc(O)cc1 on Dipeptidyl peptidase 4 (Homo sapiens, UniProt P27487), anyone have it?
5.18

----------
- tested-on: Dipeptidyl peptidase 9 (Homo sapiens, UniProt Q86TI2)
- Sequence (Q86TI2 whole entry): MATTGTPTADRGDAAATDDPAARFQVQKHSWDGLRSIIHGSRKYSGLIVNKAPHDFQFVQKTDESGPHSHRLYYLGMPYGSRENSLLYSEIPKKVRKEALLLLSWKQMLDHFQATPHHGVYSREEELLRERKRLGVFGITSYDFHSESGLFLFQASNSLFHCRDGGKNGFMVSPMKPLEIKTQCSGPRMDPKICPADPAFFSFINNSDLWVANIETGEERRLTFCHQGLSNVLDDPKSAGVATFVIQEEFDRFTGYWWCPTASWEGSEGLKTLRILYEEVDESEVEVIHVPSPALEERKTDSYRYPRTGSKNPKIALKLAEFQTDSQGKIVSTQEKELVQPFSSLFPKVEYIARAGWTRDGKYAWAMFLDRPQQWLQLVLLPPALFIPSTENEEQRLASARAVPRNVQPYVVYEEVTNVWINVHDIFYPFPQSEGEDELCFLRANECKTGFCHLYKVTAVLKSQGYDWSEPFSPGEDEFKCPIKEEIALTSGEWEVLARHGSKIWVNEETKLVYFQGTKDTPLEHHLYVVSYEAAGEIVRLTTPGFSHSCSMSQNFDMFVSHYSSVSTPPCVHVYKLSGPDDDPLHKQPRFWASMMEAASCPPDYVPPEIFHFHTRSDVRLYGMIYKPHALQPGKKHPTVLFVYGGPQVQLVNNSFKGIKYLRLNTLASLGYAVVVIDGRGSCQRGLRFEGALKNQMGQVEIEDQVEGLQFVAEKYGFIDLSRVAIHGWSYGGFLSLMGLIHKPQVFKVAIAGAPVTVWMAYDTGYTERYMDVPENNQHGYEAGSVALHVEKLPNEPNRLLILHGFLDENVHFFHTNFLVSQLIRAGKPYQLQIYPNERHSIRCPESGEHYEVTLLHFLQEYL
- test-description: Inhibition of recombinant human DPP9 using Z-GP-AMC as substrate preincubated for 5 mins followed by substrate addition and measured after 20 mins by microplate reader analysis
measurement-label: IC50 (µM)
One number for each entry, in µM.

Please give the measured IC50 for this compound: COc1cc(O)c(Cl)cc1/C=C/C(=O)c1ccc(O)c([N+](=O)[O-])c1
86.3

----------
- test-description: Metabolic stability in human liver microsomes assessed as […] drug metabolism by measuring half life at 10 uM preincubated for 3 mins followed by NADPH addition measured for 90 mins by LC-UV analysis
- Type: ADME, Microsome
- test-settings: time 93 min
measurement-label: half-life at 10 µM (h)
Give bare numbers, in h.

Would you mind telling me what half-life at 10 µM value was observed for COc1cc(O)c(Cl)cc1/C=C/C(=O)c1ccc(O)c([N+](=O)[O-])c1 ?
3.28

----------
- tested-on: Dipeptidyl peptidase 4 (Homo sapiens)
- test-description: Inhibition of DPP4 in human plasma using GP-BAN as fluorescent substrate preincubated for 5 mins followed by substrate addition and measured for 20 mins by microplate reader analysis
- Assay type: cell-free
measurement-label: IC50 (µM)
Answers are plain numbers, in µM.

[
  {
    "compound": "C=CC(C)(C)c1cc(/C=C/C(=O)c2ccc(O)cc2)c(OC)cc1O [LICOAGROCHACONE A]",
    "tested-on": "Dipeptidyl peptidase 4 (Homo sapiens)",
    "IC50, µM": 30.4
  },
  {
    "compound": "COc1cc(C(=O)/C=C/c2cc(Cl)c(O)cc2OC)ccc1O",
    "tested-on": "Dipeptidyl peptidase 4 (Homo sapiens)",
    "IC50, µM": 31.9
  },
  {
    "compound": "COc1cc(O)c(Br)cc1/C=C/C(=O)c1ccc(O)cc1",
    "tested-on": "Dipeptidyl peptidase 4 (Homo sapiens)",
    "IC50, µM": 16.4
  }
]

Working through the 5 compounds below one at a time, give IC50 for each.
1. COc1ccc(C(=O)/C=C/c2cc(Cl)c(O)cc2OC)cc1O
2. COc1ccc(C(=O)/C=C/c2cc(Br)c(O)cc2OC)cc1
3. CCCOc1ccc(C(=O)/C=C/c2cc(Cl)c(O)cc2OC)cc1
4. COc1cc(O)c(Cl)cc1/C=C/C(=O)c1ccc(O)c(C)c1
5. COc1cc(O)c(Cl)cc1/C=C/C(=O)c1cccc(O)c1

1. 9.09
2. 34
3. 11.4
4. 15.1
5. 6.43

Lab note: each compound below needs its IC50 filled in.
1. COc1cc(O)c(Cl)cc1/C=C/C(=O)c1ccc(O)c([N+](=O)[O-])c1
2. CCCOc1ccc(C(=O)/C=C/c2cc(Br)c(O)cc2OC)cc1
3. COc1cc(O)c(Cl)cc1/C=C/C(=O)c1ccc(O)cc1
4. CCOc1ccc(C(=O)/C=C/c2cc(Br)c(O)cc2OC)cc1
5. COc1cc(OC)c(/C=C/C(=O)c2ccc(O)cc2)cc1Cl

4.27
26.5
7.16
35
49.2
